Taken from patent US20230167182A1.

pKd reference
Molecular target: T1, recombinant human IL6R-his (human, UniProt P08887 20-365)
T1 construct: In house made; the entry includes the C-terminal His tag; also called human IL6R-his protein
T1 sequence: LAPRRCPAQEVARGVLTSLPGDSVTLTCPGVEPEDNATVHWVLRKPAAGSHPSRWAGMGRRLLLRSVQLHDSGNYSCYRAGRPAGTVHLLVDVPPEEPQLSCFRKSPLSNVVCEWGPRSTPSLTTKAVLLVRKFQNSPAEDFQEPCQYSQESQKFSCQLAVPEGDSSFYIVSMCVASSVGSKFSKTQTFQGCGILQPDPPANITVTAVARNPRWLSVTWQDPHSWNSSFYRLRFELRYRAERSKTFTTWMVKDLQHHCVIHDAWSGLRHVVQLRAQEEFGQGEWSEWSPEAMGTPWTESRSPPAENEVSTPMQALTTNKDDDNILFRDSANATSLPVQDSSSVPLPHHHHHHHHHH
Assay: SPR Biacore; antibody from diluted cell supernatant captured by anti-human IgG on CM5, human IL6R in flow
pKd: −log10 of the molar value.

{"Binder": "humanized antibody hu1H7-V8 (antibody, human IgG1, kappa, V domains shown, Human IgG1 / kappa) VH: QVQLVQSGAEVKKPGASVKVSCKASGYTFTNYWMHWVRQAPGQGLEWIGEINPTNGRTNYNENFKSKVTLTRDTSTSTVYMELSSLRSEDTAVYYCARLNTHYVFDSWGQGTLVTVSS VL: EIVLTQSPGTLSLSPGERATLSCSVSSSISSNYLHWYQQKPGLSPRLLISRTSTLASGIPARFSGSGSGTEFTLTISRLQSEDFAVYYCQQGSGIPFTFGQGTKLEIKR", "pKd": 9.04}
{"Binder": "humanized antibody hu1H7-V7 (antibody, human IgG1, kappa, V domains shown, Human IgG1 / kappa) VH: QVQLVQSGAEVKKPGASVKVSCKASGYTFTNYWMHWVRQAPGQGLEWIGEINPTNGRTNYNENFKSKVTLTVDKSTSTAYMELSSLRSEDTAVYYCARLNTHYVFDSWGQGTLVTVSS VL: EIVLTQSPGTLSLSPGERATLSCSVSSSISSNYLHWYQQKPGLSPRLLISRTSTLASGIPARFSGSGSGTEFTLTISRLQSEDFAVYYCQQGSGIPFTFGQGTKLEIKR", "pKd": 9.07}
{"Binder": "humanized antibody hu1H7-V3 (antibody, human IgG1, kappa, V domains shown, Human IgG1 / kappa) VH: QVQLVQSGAEVKKPGASVKVSCKASGYTFTNYWMHWVRQAPGQGLEWIGEINPTNGRTNYNENFKSKVTMTVDTSTSTVYMELSSLRSEDTAVYYCARLNTHYVFDSWGQGTLVTVSS VL: EIVLTQSPGTLSLSPGERATLSCSVSSSISSNYLHWYQQKPGLSPRLLISRTSTLASGIPARFSGSGSGTEYTLTISRMQSEDFAVYYCQQGSGIPFTFGQGTKLEIKR", "pKd": 9.25}
{"Binder": "humanized antibody hu1H7-V6 (antibody, human IgG1, kappa, V domains shown, Human IgG1 / kappa) VH: QVQLVQSGAEVKKPGASVKVSCKASGYTFTNYWMHWVRQAPGQGLEWIGEINPTNGRTNYNENFKSKVTLTVDTSTSTVYMELSSLRSEDTAVYYCARLNTHYVFDSWGQGTLVTVSS VL: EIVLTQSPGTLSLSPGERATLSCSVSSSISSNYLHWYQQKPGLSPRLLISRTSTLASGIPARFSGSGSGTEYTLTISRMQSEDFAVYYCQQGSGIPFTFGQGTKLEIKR", "pKd": 9.23}
{"Binder": "humanized antibody hu1H7-V1 (antibody, human IgG1, kappa, V domains shown, Human IgG1 / kappa; also called hu1H7-Vl) VH: QVQLVQSGAEVKKPGASVKVSCKASGYTFTNYWMHWVRQAPGQGLEWIGEINPTNGRTNYNENFKSKVTLTVDKSTSTAYMELSSLRSEDTAVYYCARLNTHYVFDSWGQGTLVTVSS VL: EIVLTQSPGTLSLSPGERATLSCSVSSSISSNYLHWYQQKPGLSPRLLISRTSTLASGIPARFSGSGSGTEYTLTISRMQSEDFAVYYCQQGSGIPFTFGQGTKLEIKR", "pKd": 9.17}
{"Binder": "humanized antibody hu1H7-V2 (antibody, human IgG1, kappa, V domains shown, Human IgG1 / kappa) VH: QVQLVQSGAEVKKPGASVKVSCKASGYTFTNYWMHWVRQAPGQGLEWIGEINPTNGRTNYNENFKSKVTLTRDTSTSTVYMELSSLRSEDTAVYYCARLNTHYVFDSWGQGTLVTVSS VL: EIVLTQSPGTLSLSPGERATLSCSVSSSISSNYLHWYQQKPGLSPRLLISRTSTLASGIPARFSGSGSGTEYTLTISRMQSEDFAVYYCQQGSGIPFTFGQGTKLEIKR", "pKd": 9.13}
